Cited source for all entries: patent US7291673B2

- run.description: Water solubility of peptide
- Type: physicochemical
Residues, ends and D or L forms follow the SMILES beside them.
readout.name: solubility

INSERT INTO measurements (compound, readout_name, data_value) VALUES
  ('N=C(N)NCCC[C@H](NC(=O)[C@H](CC(N)=O)NC(=O)[C@H](CCCCN)NC(=O)[C@H](Cc1ccc(O)cc1)NC(=O)[C@H](CS)NC(=O)CN)C(=O)N[C@@H](CC(=O)O)C(=O)N[C@@H](CS)C(=O)NCC(=O)O (H-GCYKNRDCG-OH; N-terminus and C-terminus assumed)', 'solubility', '≥ 120 mg/mL');
